The values you see were collected from BigSolDB 2.1.

# studyConditions: in n-hexane, 293.15 K
measuredAttribute: solubility (mole fraction)
Give bare numbers.

Cc1cc(C)c(S(=O)(=O)NC23CC4CC(CC(C4)C2)C3)c(C)c1 | 0.000265

Now take the following compound into account.
Endpoint output: solubility (mole fraction) of "CC12CC3CC(C)(C1)CC(NS(=O)(=O)c1ccc([N+](=O)[O-])cc1)(C3)C2" . Value? 4.22e-05

====

# studyConditions: in n-hexane, 303.15 K
Give measured solubility (mole fraction) for each item. Keep answers brief.
One number for each entry.

Cc1cc(C)c(S(=O)(=O)NC23CC4CC(CC(C4)C2)C3)c(C)c1 | 0.000366

We next turn to a different compound, shown below.
Requested field: solubility (mole fraction). Item: "CC12CC3CC(C)(C1)CC(NS(=O)(=O)c1ccc([N+](=O)[O-])cc1)(C3)C2" 6.92e-05
